Target: MMP 12 (Homo sapiens, UniProt P39900)
Construct: recombinant human MMP-1-10, 12, 13 and 14 catalytic domains; purchased Biornol, USA
Sequence (P39900 106-263 limits assumed): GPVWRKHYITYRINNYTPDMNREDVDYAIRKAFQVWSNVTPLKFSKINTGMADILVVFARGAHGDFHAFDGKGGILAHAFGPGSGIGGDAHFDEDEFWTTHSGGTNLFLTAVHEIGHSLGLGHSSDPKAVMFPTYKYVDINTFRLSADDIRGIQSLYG
Assay: MMP Inhibitor Fluorimetric Profiling kit, MMP 12
Format: biochemical
Settings: test compound 20 μM
From the text: Inhibition of matrix metalloproteinase enzymes by synthesized selenopheno[3,2-h]chromenes I-1-I-4 was detected on MMP Inhibitor Fluorimetric Profiling kit using NNGH (N-isobutyl-N-4-methoxyphenylsulfonyl)glycyl-hydroxamic acid) as a standard. MMP assay: Inhibitors of matrix metalloproteinase enzymes were detected with the use of MMP Inhibitor Fluorimetric Profiling kit (Biornol, USA) accordingly to manufacturer's instructions. […]
Where a name gives a salt, the structure may show the parent alone.
inhibition at 20 µM values by entry
Metric: inhibition at 20 µM (%)

>>> assay_value("O=C(NO)c1cc2ccc3c(Br)c(CCN4CCNCC4)[se]c3c2oc1=O [Compound I-3, hydrochloride]")
0
>>> assay_value("O=C(NO)c1cc2ccc3c(Br)c(CN4CCNCC4)[se]c3c2oc1=O [Compound I-2, hydrochloride]")
5
>>> assay_value("O=C(NO)c1cc2ccc3c(Br)c(CN4CCCNCC4)[se]c3c2oc1=O [Compound I-4, hydrochloride]")
7
>>> assay_value("CN1CCN(Cc2[se]c3c(ccc4cc(C(=O)NO)c(=O)oc43)c2Br)CC1 [Compound I-1, hydrochloride]")
0

* * *

Target: MMP 8 (Homo sapiens, UniProt P22894)
Construct: recombinant human MMP-1-10, 12, 13 and 14 catalytic domains
Sequence (P22894 100-262 limits assumed): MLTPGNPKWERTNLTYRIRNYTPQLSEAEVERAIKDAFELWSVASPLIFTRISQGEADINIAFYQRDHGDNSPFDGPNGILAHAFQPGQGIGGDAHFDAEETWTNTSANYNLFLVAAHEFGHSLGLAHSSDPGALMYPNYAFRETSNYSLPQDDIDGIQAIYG
Assay: MMP Inhibitor Fluorimetric Profiling kit, MMP 8
Conditions: ne = no effect; read-out: MMP 8 inhibition IC50
Counter-ions that a name gives are not always drawn.
Metric: IC50

>>> assay_value("O=C(NO)c1cc2ccc3c(Br)c(CN4CCNCC4)[se]c3c2oc1=O [Compound I-2, hydrochloride]")
"1640 nM"
>>> assay_value("CN1CCN(Cc2[se]c3c(ccc4cc(C(=O)NO)c(=O)oc43)c2Br)CC1 [Compound I-1, hydrochloride]")
"20000 nM"
>>> assay_value("O=C(NO)c1cc2ccc3c(Br)c(CCN4CCNCC4)[se]c3c2oc1=O [Compound I-3, hydrochloride]")
"1610 nM"
>>> assay_value("O=C(NO)c1cc2ccc3c(Br)c(CN4CCCNCC4)[se]c3c2oc1=O [Compound I-4, hydrochloride]")
"1860 nM"

* * *

Molecular target: MMP 1 (Homo sapiens)
Construct: recombinant human MMP-1-10, 12, 13 and 14 catalytic domains; purchased Biornol, USA
Sequence (P03956 98-276 limits assumed): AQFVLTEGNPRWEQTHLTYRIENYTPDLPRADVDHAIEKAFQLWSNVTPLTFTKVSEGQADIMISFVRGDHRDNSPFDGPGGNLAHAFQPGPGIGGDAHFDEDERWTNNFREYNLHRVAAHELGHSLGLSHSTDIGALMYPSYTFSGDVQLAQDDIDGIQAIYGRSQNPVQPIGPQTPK
Experiment: MMP Inhibitor Fluorimetric Profiling kit, MMP 1
Format: biochemical
Conditions: test compound 20 μM
Where a name gives a salt, the structure may show the parent alone.
inhibition at 20 µM values by entry
Metric: inhibition at 20 µM (%)

>>> assay_value("CN1CCN(Cc2[se]c3c(ccc4cc(C(=O)NO)c(=O)oc43)c2Br)CC1 [Compound I-1, hydrochloride]")
29
>>> assay_value("O=C(NO)c1cc2ccc3c(Br)c(CN4CCNCC4)[se]c3c2oc1=O [Compound I-2, hydrochloride]")
94
>>> assay_value("O=C(NO)c1cc2ccc3c(Br)c(CCN4CCNCC4)[se]c3c2oc1=O [Compound I-3, hydrochloride]")
94
>>> assay_value("O=C(NO)c1cc2ccc3c(Br)c(CN4CCCNCC4)[se]c3c2oc1=O [Compound I-4, hydrochloride]")
99
